Values were extracted from PubChem BioAssay AID216.

Hi there, I'd appreciate the recorded T/C for every entry that follows.
System: BDF1 mice, P288 leukemia ip, survival T/C
TEST_SUMMARY: NCI In Vivo Anticancer Drug Screen. Data for tumor model P288 Lymphocytic Leukemia (intraperitoneal) in B6D2F1 (BDF1) mice
REPORTED_CONDITIONS: endpoint: survival time, mean or median; dose: 125.0 micrograms/kg/injection; schedule: Q01DX010 (ip); vehicle: saline; higher = longer survival
Inconclusive results and toxic doses are left out.

Ask: Entry under review: N#C[C@@H]1C2C=CC(CC2)[C@H]1C#N . Reported T/C?
Reply: 105 % of control

Respectfully, I request T/C for each entry included below.
1. O[C@H](CN1CC1)[C@@H](O)CN1CC1
2. N#Cc1cn(C2OC(CO)C(O)C2O)c2ncnc(N)c12 (stereo not given)
3. Nc1nc(F)nc2c1ncn2C1OC(CO)C(O)C1O (stereo not given)

Reply:
1: 112 % of control; 2: 105 % of control; 3: 88 % of control

Ask: If you can, please state the reported T/C value of CC(=O)NC1=C(N2CC2)C(=O)C(NC(C)=O)=C(N2CC2)C1=O .
Reply: 105 % of control
